Origin of values: the domain aggregation screens of Martell et al. (2025)

# reported soluble fraction (log2); entries follow
# assay overview: soluble fraction after stress (log2 fold change); higher = more stays soluble; pooled small domains, quantitative proteomics
# run conditions: stress: 50 degC
Write no unit; give the number alone.

Some sequences with known soluble fraction (log2) results, for comparison:
1. HMENDPYEILGIARSASDDEIKAKYRALTRENHPDILMAKGVPQEFIDLANEKMAVINAAYDKIEKER | 0.292
2. HMESIAEIDRMNAKIFMDEFQDSLSIMQKTTNPETFFSRYDLAMERLDNMVELQQKGIKFTSDLSSLKAQ | 0.0074
3. HMPVAPTYALTVKTDPPSANVRLLNSPTPYQPGVRLPSGNYDIEVTQSGYATRKESVRIADRDVALNIAL | 0.163

Shifting focus to the sequence that follows.
Query block: Looking for the measured soluble fraction (log2) of `HMNMPDVTVEWVKEQQAKFGLTDSDLAKSVNIDNANLARIFNQRGLTKIHKALFYYFFRAYGLQ` , can you help?
Result block: -2.4

###

# assay overview: soluble fraction after stress (log2 fold change); higher = more stays soluble; pooled small domains, quantitative proteomics
# run conditions: stress: 50 degC
# reported soluble fraction (log2); entries follow
Write no unit; give the number alone.

1) HMKFGEQIKERRQELDLTQAEVAEKLFVTRQAVSNWEHNKTYPDLNMLVKISNVYQISLDSLLR | -1.23
2) HMAQVSDDAELEKWADTAIDEHPKPVEEYRAGNAASINFLMGQVMKMSRGKANPGAVMQILKQKLD | 0.109
3) HMVDLANIDPIASSIKLNGAEADASFNTLEDRRVSVSGSFEENKNYTMEYTFKDYAGGSVTGTLDFKTLA | 0.137

Query block: Looking for the measured soluble fraction (log2) of `HMPDAENFRYRVPYTTEQNRLQYYEGDIRAENADKARDQVMQDAQKYFAQNTAFTPNYIDTDIISLD` , can you help?
Result block: 0.034

Query block: Looking for the measured soluble fraction (log2) of `HMPNFDPSYILDFGDVIQLQLVGQKNQILEIPILRDGSVNLPDIGKIFLSGMSLEEATKIIKDTYSA` , can you help?
Result block: -0.679

Query block: Looking for the measured soluble fraction (log2) of `HMQDTTLTSQILRVPSSVNINDLANVLKSLAGKNTVVAPYKAANTIIITGYAPNVRRVLSLANELIPRLDV` , can you help?
Result block: -0.53

Query block: Looking for the measured soluble fraction (log2) of `HMTDLDVAVTMTVALEEAVNGATRRVRLPNGKELNVKIPAGVAAGQQIRLKGQGETAPGHRPGDVLITVNI` , can you help?
Result block: -0.262

Query block: Looking for the measured soluble fraction (log2) of `HMVVYDAELLLNINPGMSYEEVKEMLGDPGMIIAGNDAENSVYRWSTGGISFMGRFENGALIRKSIISP` , can you help?
Result block: -0.621

Query block: Looking for the measured soluble fraction (log2) of `HMAMTNEEREALISEIKQTVNNSIDLKKDISDTEIKEAITQAVFERSEKSYLSIAEKQDIITAVFNSMR` , can you help?
Result block: 0.0202

Query block: Looking for the measured soluble fraction (log2) of `HMIGGASVFKQFLPLADKMLLTLIHSEFEGDTYFPVFSEKEWLLQESSSLLSATGYQLSFQTYIR` , can you help?
Result block: 0.0328

Query block: Looking for the measured soluble fraction (log2) of `HMDKPVIEDVSFDDLAYMVGERVIIRTHLRSTRDGELKSFNRAGILVSLRNRPGMELEIPRSTVASAQVVW` , can you help?
Result block: -2.45

Query block: Looking for the measured soluble fraction (log2) of `HMPTVLKQGSTGQEVKELQQALSKLGYRVTVTGEFDTATHYGVVRFQRKHRLTIDGIVGPQTLSKIRAHQK` , can you help?
Result block: -2.86

Query block: Looking for the measured soluble fraction (log2) of `HMQGVTVPDLTRVSLEEAVATISSLGLRYEISDRRSNAAFPANYVLDQAPGANTIVKPNRKVYLTVNAA` , can you help?
Result block: 0.35

Query block: Looking for the measured soluble fraction (log2) of `HMPEVTMSYSARNQVVSFSKATQYEIVDEFGTVVLRGVGNQATLRYLSRGDYFVNFGAGTEVLKK` , can you help?
Result block: 0.000609

Query block: Looking for the measured soluble fraction (log2) of `HMQPSQTLSATVEFPDRLDRFLALAFPEVSRARFQRLIAEGHVSVEGVPATEIRHKLKAGQRVEAVIPPA` , can you help?
Result block: 0.0663

Query block: Looking for the measured soluble fraction (log2) of `HMYEVVPNMKGLSYEQAATALRTAGLEPELSDSIYDDKTRPGTVLEQSPRANTKVKPGRTVYLTVNAF` , can you help?
Result block: 0.0459

Query block: Looking for the measured soluble fraction (log2) of `HMTKTKADKIDYAIGDSGTEPPTEDKWTDLAHLPLIKAGQFQWTRRTEYYSDGSTAVSYNIAKSE` , can you help?
Result block: 0.0286

Query block: Looking for the measured soluble fraction (log2) of `HMVMTTVPEVLGMDIRTAASMLTGKNLKYDYDLVESDKPKDEVIEQDQAKGTEVPEGTVVKLKVSKGPA` , can you help?
Result block: 0.0583

Query block: Looking for the measured soluble fraction (log2) of `HMNIYFNIEDAVANAVVENGKMSAAIYEKNVDTGEVAKLAEVSMPVMGGNINITKTLLTKALISQLP` , can you help?
Result block: -0.384

###

# reported soluble fraction (log2); entries follow
# assay overview: soluble fraction after stress (log2 fold change); higher = more stays soluble; pooled small domains, quantitative proteomics
# run conditions: stress: 50 degC
Write no unit; give the number alone.

Some sequences with known soluble fraction (log2) results, for comparison:
1. HMHTDDDGITEAFPHLRLLSLGEDILDLLEKSRFIRKLNNELVYYVVDFREQNSIDGRRYHPSIYHNL | -0.258
2. HMRKKDGEAYVLPRPLKKGDSVLIYDIDKKGTVLQPPEKGGKTALIQAGIIQTRVPVSNLRLLE | 0.383
3. HMSEEGTIPDVSGQDEASAQKALENAGFTNIKSEAVYSEEEQGTVIDTNPTAGTKVSKDTEITMQVSKGSE | -0.34
4. HMDEYFNPETVVHYLRELFDTYRENGGNPFEWFHSTFESVNLNPQNYRKDLITTIEKALIEWIEIFEKQ | -0.0143
5. HMITASNYFIEVERIGIETLPETLKKGHDLVVKSTSNGTNWANYQTSEGIKKVIDLYFQKLNEYANTV | -0.749
6. HMGQVAKPPLKELGADPVTGKPMVLKDGRFGPYVTDGEYNASLRKDDDIETIGVERAAELLQIRREKGP | -0.081
7. HMPKHDWDAFAGAIARRVHDHGMPVSQGELVRDMMDWFAGRKDFPPPDERTVRRKVSAIWRELNG | -1.02

Query block: Looking for the measured soluble fraction (log2) of `HMPRKYFPFYFTFRETAQTMPPRLRAVFYEAIIEYGTTGKEPTLPKSIAGYWPLVKPTLDSAKAHYDAG` , can you help?
Result block: -0.831

###

# reported soluble fraction (log2); entries follow
# assay overview: soluble fraction after stress (log2 fold change); higher = more stays soluble; pooled small domains, quantitative proteomics
# run conditions: stress: 50 degC
Write no unit; give the number alone.

Some sequences with known soluble fraction (log2) results, for comparison:
1) HMRAERVQITDPYIELHTGPGRGFPIFFVAPREQWISIELRHTDWFKVRAVGGQVGWVQRKQLEST | -0.455
2) HMRAVFEQLRIGQTLAGVVKAQEKGFSLVEIDGQTVAMRLPHPAAVGDTLRLRFAGHMPQAVFLLES | -0.561
3) HMISDISEIEAIIVEVLKVFPNQLQEYLDGKEKILSFFVGQVMQRTKGRANPSLVNEILKEKIKN | 0.0377

Shifting focus to the sequence that follows.
Query block: Looking for the measured soluble fraction (log2) of `HMEAYLPVTVVSDGKILTGNLEKAGKNEKWLENVLSELKTDVKNTLLLTVDPKDGLIFYPKG` , can you help?
Result block: 0.0932

###

# reported soluble fraction (log2); entries follow
# assay overview: soluble fraction after stress (log2 fold change); higher = more stays soluble; pooled small domains, quantitative proteomics
# run conditions: stress: 50 degC
Write no unit; give the number alone.

Some sequences with known soluble fraction (log2) results, for comparison:
1) HMNTKDRIKQLAAQRKITIAELERKLHIANGTIGKWDKQNPSIEPLKKLADYFGVTTDYLLGRT | 0.162
2) HMKRFSPPSIEEVDSYIREKGYTVDAERFVNFYESKGWYVGKNKMKNWRAAVATWQKEDNKRN | 0.199

Query block: Looking for the measured soluble fraction (log2) of `HMSTPLVATLRKRIIDGHYPPGERLAEIPVAEAFGVSRTPVRLAFRTLEQEGLLEKAGKRGYAVRA` , can you help?
Result block: 0.0325

Query block: Looking for the measured soluble fraction (log2) of `HMTEQKNNEQQNAVNEKKQALKQLMEKGKEKGSLSYNEVNALLDKLEFTEDQKAIVYDQLHSEDIELQ` , can you help?
Result block: 0.193

Query block: Looking for the measured soluble fraction (log2) of `HMEDKFEYQGERKSLIYPTSFSELTEALGVRNMLQSIIDFATRDEDTSGYEEMKERQNEYIQEYL` , can you help?
Result block: 0.0302
